Test system: OVCAR-5
Test: NCI tumour cell line growth inhibition, 48 h
Active and inactive are the calls of the source. Rule as the data show it: active = GI50 up to about 1.1 µM and inactive = higher.
readout label: GI50

{"compound": "CC(=O)NC1=C(Nc2ccc(C)cc2)C(=O)c2ccccc2C1=O", "target system": "OVCAR-5", "GI50": "13.3 µM (inactive)"}
{"compound": "C[C@@]12C[C@@H](c3ccccc3O1)N1CCSC1=N2", "target system": "OVCAR-5", "GI50": "> 100 µM (inactive)"}
{"compound": "O=c1c(-c2ccccc2Cl)coc2cc(F)ccc12", "target system": "OVCAR-5", "GI50": "27.1 µM (inactive)"}

Input line: Would you kindly share the measured GI50 for COC(=O)N/N=C(\C(=O)Nc1cccc([N+](=O)[O-])c1)c1nc2ccc([N+](=O)[O-])cc2nc1O ?
Output line: > 100 µM (inactive)

Input line: What about CC(/C=N\NC(=S)N(C)C)=N/NC(=S)N(C)C ?
Output line: 10.9 µM (inactive)

Input line: Now this one: CCCCS(=N)(=O)CC[C@H](N)C(=O)O (stereo partly specified) [BUTHIONINE SULFOXIME]
Output line: > 5000 µM (inactive)

Input line: Here is the next compound: O=C(O)/C=C/C(=O)Nc1cccc2c1-c1ccccc1C2=O
Output line: > 63.4 µM (inactive)

Input line: Can you check O=S(=O)(/C=C/C=C/[S+]([O-])c1ccccc1)c1ccccc1 (stereo unspecified) next?
Output line: > 8.22 µM (inactive)

Input line: Please answer likewise for CCCCNS(=O)(=O)c1n[nH]c(=O)[nH]c1=O
Output line: > 100 µM (inactive)

Input line: Another: CC(O)C(O)C(O)C(/C=N\Nc1ccccc1)=N/Nc1ccccc1 (stereo unspecified)
Output line: 13.9 µM (inactive)

Input line: Then CC(C)(C)c1cc(OCc2nnc3sc(S)nn23)c(Cl)cc1OCc1nnc2sc(S)nn12 ?
Output line: 35.2 µM (inactive)

----------
Test system: SR
Experiment: NCI tumour cell line growth inhibition, 48 h
Activity calls are given as the source filed them. No stated cut-off is given here; in the data, active = GI50 up to about 1.1 µM and inactive = higher.
Listed here are compounds together with their documented GI50.

Below: 4 compounds and their reported GI50.
{"compound": "C=C1C(=O)CC2C1CC(=O)/C(C)=C/CCC(C)(O)C2O (stereo not given)", "GI50": "7.91 µM (inactive)"}
{"compound": "C=C1C(=O)OC2/C=C(\\CO)CC/C=C(\\CO)CC(OC(=O)C(C)C)C12 (stereo not given)", "GI50": "4.79 µM (inactive)"}
{"compound": "O=C1C2c3[nH]c4ccccc4c3C3CCCCCCC3C2C(=O)N1c1ccccc1 (stereo not given)", "GI50": "14.9 µM (inactive)"}
{"compound": "O=C1CSC(=S)N1c1ccco1", "GI50": "> 100 µM (inactive)"}

// next entry
Input line: Requested field: GI50. Item: Cc1ccc(/C=N\NC(=O)c2ccncc2)s1
Output line: > 100 µM (inactive)

----------
System: SN12C
Assay: NCI tumour cell line growth inhibition, 48 h
The source made the active and inactive calls. Cut-off read from the data, not from the text of the source: active = GI50 up to about 1.1 µM and inactive = higher.
Form entry, call: pick from class 1 = active, class 0 = inactive

Input line: // return assay outcome for O=c1oc2nc(-c3ccccc3)cc(C(F)(F)F)c2n1Cc1ccccc1
Output line: class 0

Input line: Also check O=C1CC[C@@H](S(=O)(=O)c2ccccc2)[C@@H](/C=C/c2ccccc2)O1
Output line: class 0

Input line: Can you check Cc1cc(C)nc(NS(=O)(=O)c2ccc(NC(=O)c3cccn4c(=O)c5ccccc5nc34)cc2)n1 next?
Output line: class 0

Input line: And CCOC1=C2N=C(C(CC)c3ccc(F)cc3)N=C2C(=O)c2ccccc21 (centres undefined) ?
Output line: class 0
